Tested On: purified recombinant human alpha synuclein fibrils (human, UniProt P37840 1-140)
Assay Remarks: SPR, Biacore T200, as in Example 3; Fab injected;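 further: ligands amine-coupled on CM5 chip flow cells, HBS-EP+ running buffer, kinetic data fitted with 1:1 model allowing local bulk contribution and global Rmax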
Property: koff (s⁻¹)
Answers are plain numbers, in s⁻¹.

Binder	Unit Text	Observed Value
6470 rabbit Fab with heavy chain mutation N99K (Fab, V domains shown) VH: QSVEESGGRLVTPGTPLTLTCTVSGIDLSSHDMYWVRQAPGKGLEYIGAIYASGSTYYASWAKGRFTISKTSTTVDLKMTSLTTEDTATYFCARIHYGKSGGLWGQGTLVTVSS VL: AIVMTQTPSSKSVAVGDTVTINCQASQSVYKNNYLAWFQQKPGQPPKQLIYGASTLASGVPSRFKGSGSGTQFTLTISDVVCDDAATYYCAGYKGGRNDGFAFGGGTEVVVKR	s⁻¹	0.207
6470 rabbit Fab with light chain mutation Y30W (Fab, V domains shown) VH: QSVEESGGRLVTPGTPLTLTCTVSGIDLSSHDMYWVRQAPGKGLEYIGAIYASGSTYYASWAKGRFTISKTSTTVDLKMTSLTTEDTATYFCARIHYGNSGGLWGQGTLVTVSS VL: AIVMTQTPSSKSVAVGDTVTINCQASQSVWKNNYLAWFQQKPGQPPKQLIYGASTLASGVPSRFKGSGSGTQFTLTISDVVCDDAATYYCAGYKGGRNDGFAFGGGTEVVVKR	s⁻¹	0.0895
6470 rabbit Fab with heavy chain mutation H31Q (Fab, V domains shown) VH: QSVEESGGRLVTPGTPLTLTCTVSGIDLSSQDMYWVRQAPGKGLEYIGAIYASGSTYYASWAKGRFTISKTSTTVDLKMTSLTTEDTATYFCARIHYGNSGGLWGQGTLVTVSS VL: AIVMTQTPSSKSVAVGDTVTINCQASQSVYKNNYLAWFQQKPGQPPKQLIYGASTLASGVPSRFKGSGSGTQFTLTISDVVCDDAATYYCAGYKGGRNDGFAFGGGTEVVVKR	s⁻¹	0.0972

Report koff for every entry below.
1. 6470 rabbit Fab with light chain mutation N33R (Fab, V domains shown) VH: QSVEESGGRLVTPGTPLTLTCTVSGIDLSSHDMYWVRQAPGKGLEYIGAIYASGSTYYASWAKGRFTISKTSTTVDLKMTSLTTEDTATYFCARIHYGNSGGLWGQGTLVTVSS VL: AIVMTQTPSSKSVAVGDTVTINCQASQSVYKNRYLAWFQQKPGQPPKQLIYGASTLASGVPSRFKGSGSGTQFTLTISDVVCDDAATYYCAGYKGGRNDGFAFGGGTEVVVKR
2. 6470 rabbit Fab with light chain mutation N33K (Fab, V domains shown) VH: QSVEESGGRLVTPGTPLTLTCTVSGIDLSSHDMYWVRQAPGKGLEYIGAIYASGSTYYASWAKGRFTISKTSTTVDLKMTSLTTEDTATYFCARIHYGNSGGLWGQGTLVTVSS VL: AIVMTQTPSSKSVAVGDTVTINCQASQSVYKNKYLAWFQQKPGQPPKQLIYGASTLASGVPSRFKGSGSGTQFTLTISDVVCDDAATYYCAGYKGGRNDGFAFGGGTEVVVKR

1. 0.0289
2. 0.0498
